Exercise: state measured growth for each of the compounds provided.
# Test system: T-47D breast
# test-summary: NCI-60 one-dose screen, 48 h (100 = growth as untreated, 0 = no growth, -100 = all killed)
# test-settings: 10 µM unless noted
About 83,000 compounds went through this panel and 20% of them were active in at least one assay; those are over-represented in the sample as a whole. Activity calls are given as the source filed them. Rule for the calls: active = growth percent below 10; inactive = the rest.

- compound: "O=C(Nc1ccccc1O)c1ccc(CNc2ccnc(C(F)(F)F)c2)cc1"
  growth: "32.1% (inactive)"
- compound: "N#CC1=C(N)Oc2c(sc3c(F)cccc23)C1c1ccc([N+](=O)[O-])cc1 (stereo not drawn)"
  growth: "-3.63% (active)"
- compound: "CC1(C)CC[C@]23CC[C@]4(C)[C@H](CC[C@@H]5[C@@]6(C)C/C(=C/O)C(=O)C(C)(C)[C@@H]6CC[C@]54C)[C@H]2[C@H]1OC3"
  growth: "114% (inactive)"
- compound: "COc1ccc(NC(=O)c2ccc(Nc3ncnc4c3cnn4-c3cccc(F)c3)cc2)cc1"
  growth: "96.1% (inactive)"

// each listed compound needs a value for growth
1. Cc1cccc(NC(=O)Cn2cc(CN3CCN(c4ccnc5cc(Cl)ccc45)CC3)nn2)c1
2. C=C(C)[C@@H]1CC[C@]2(C(=O)N3CCNCC3)CC[C@]3(C)[C@H](CC[C@@H]4[C@@](C)(CCC(=O)N5CCNCC5)[C@H](C(=C)C)CC[C@]43C)[C@@H]12
3. NC(=O)c1ccccc1OCC(=O)Nc1ccc(Cl)c(Cl)c1

Reply:
83.8% (inactive)
103% (inactive)
79.8% (inactive)

// each listed compound needs a value for growth
1. COc1ccc(C/C(C)=C(\c2ccc(Cl)cc2)c2ccc(OCCN3CCCC3)cc2)cc1
2. N#Cc1ccccc1-c1ccc(CN2C(=O)S/C(=C\c3ccc(Br)cc3)C2=O)cc1
3. CN(C)Cc1ccc(NC(=O)c2cncc(C#Cc3cnc(N)c4ncccc34)c2)cc1C(F)(F)F
4. Cc1c(O)cc(-c2cnc(N/N=C/c3ccccc3)s2)c(O)c1C
5. CCN(CC)CCOc1ccc(C(=O)/C=C\c2ccc(Cl)cc2Cl)cc1
6. Cn1cc(-c2nc3c(F)cc4[nH]ncc4c3c3c2CCCC3)c(C(F)(F)F)n1

Reply:
["56.6% (inactive)", "85.3% (inactive)", "99% (inactive)", "29.7% (inactive)", "29.9% (inactive)", "39.9% (inactive)"]

// each listed compound needs a value for growth
1. Cc1ccc2nc(-c3ccc(C(=O)N/N=C/c4ccc([N+](=O)[O-])cc4)cc3)[nH]c2c1
2. O=Nc1ccc(NC(=O)Nc2ccc([N+](=O)[O-])cc2)cc1
3. COC12C=C/C(=C(/C(=O)OCc3cncnc3)C(=O)CCCCCCCCC3(OC)C=C/C(=C(/C(=O)OCc4cncnc4)C(=O)CCCCCCCC1)O3)O2
4. CCOC(=O)c1c(NC(=O)c2ccccc2)sc2c3c(ccc12)OCN(C)C3

Reply:
["91.1% (inactive)", "78.9% (inactive)", "10.2% (inactive)", "-10.1% (active)"]

Hey, T-47D breast data for Oc1c(I)cc(I)cc1CN(Cc1ccccn1)Cc1ccccn1 : growth came out at 22.4% (inactive)

###

# Test system: SK-MEL-2 melanoma
# test-summary: NCI-60 one-dose screen, 48 h (100 = growth as untreated, 0 = no growth, -100 = all killed)
# test-settings: 10 µM unless noted
This is part of a sample that, as a whole, favours compounds with a hit. Of some 83,000 tested, about 20% had one in any assay.
Is growth at least 90%? Then TRUE. If not, FALSE.

Query: State whether the measured growth reaches 90%, counting equality as reaching it, for Cc1ccc2nc(-c3ccc(C(=O)N/N=C/c4ccc([N+](=O)[O-])cc4)cc3)[nH]c2c1
Reply: TRUE

###

# Tested on: IGROV1 ovarian
# test-summary: NCI-60 one-dose screen, 48 h
# test-settings: 10 µM unless noted
This is part of a sample that, as a whole, favours compounds with a hit. Of some 83,000 tested, about 20% had one in any assay. Active and inactive are the calls of the source. How the source made its calls: active means growth percent below 10; inactive means the rest.
Hello, when you answer, please use one of the following outcomes: Yes (active), No (inactive)

Examples with answers:
- compound: "COc1cccc(-c2cn3nc(-c4cn(C)c5ccccc45)sc3n2)c1"
  system-under-test: "IGROV1 ovarian"
  group-label: "No"
- compound: "Cc1ccc(C(=O)c2ccc(CC(=O)N/N=C/c3cccc(O)c3O)n2C)cc1"
  system-under-test: "IGROV1 ovarian"
  group-label: "No"
- compound: "CCOC(=O)C1=C(CCl)N(C)C(=O)NC1c1ccc2c(c1)OCO2 (stereo unspecified)"
  system-under-test: "IGROV1 ovarian"
  group-label: "No"
- compound: "CN(C)CCCC1(c2ccc(F)cc2)OCc2cc(-c3csc4ccccc34)ccc21 (stereo unspecified)"
  system-under-test: "IGROV1 ovarian"
  group-label: "Yes"
- compound: "CC1=Nc2cnc(Nc3ccc(N4CCCCC4)cc3)nc2Nc2ccccc21"
  system-under-test: "IGROV1 ovarian"
  group-label: "No"
- compound: "CCCCCc1ccc(S(=O)(=O)Nc2ccc3nc(N)oc3c2)cc1"
  system-under-test: "IGROV1 ovarian"
  group-label: "No"
- compound: "COc1cc(O)c2c(=O)c3c(CC=C(C)C)cc(OC)c(O)c3oc2c1"
  system-under-test: "IGROV1 ovarian"
  group-label: "No"
- compound: "C=C1SC(=Nc2ccccc2Cl)N(C(=O)c2sc3ccccc3c2Cl)C1(C)C"
  system-under-test: "IGROV1 ovarian"
  group-label: "No"
- compound: "COc1ccc2c(O)c(/C=C3\\N=Nc4ncccc43)oc2c1C[C@@H]1CCNC[C@H]1F"
  system-under-test: "IGROV1 ovarian"
  group-label: "Yes"
- compound: "CC1(C)CC(=O)C2=C(C1)C(c1ccc(Cl)cc1)n1ncc(C#N)c1N2 (stereo unspecified)"
  system-under-test: "IGROV1 ovarian"
  group-label: "No"

Query: Please state the recorded outcome for this compound: Nc1ncccc1O
Reply: No

###

# Tested on: SR leukemia
# test-summary: NCI-60 one-dose screen, 48 h (100 = growth as untreated, 0 = no growth, -100 = all killed)
# test-settings: 10 µM unless noted
This is part of a sample that, as a whole, favours compounds with a hit. Of some 83,000 tested, about 20% had one in any assay.
endpoint: growth (%)
Answers are plain numbers, in %.

// each listed compound needs a value for growth
1. COC(=O)c1c2c(c[n+]([O-])c1C)C(=O)C=C(NCc1ccccc1)C2=O
2. CC(=O)c1ccc(-n2cc(CN3CCN(c4cc5c(cc4F)c(=O)c(C(=O)O)cn5C4CC4)CC3)nn2)cc1
3. Nc1[nH]nc2nc(-c3ccccc3)n3c4ccccc4nc3c12
4. O=C(Nc1cccnc1Nc1ccc(Cl)cc1)c1cn(Cc2cccc(Oc3ccccc3)c2)nn1
5. Cc1cccc(NC(=O)Cn2cc(CN3CCN(c4ccnc5cc(Cl)ccc45)CC3)nn2)c1

Reply:
[-10.3, 99.6, 92.2, 21.5, 78]

// each listed compound needs a value for growth
1. O=C(NCCCCCCNC(=O)OCc1ccc2c(Cl)cc(Cl)c(O)c2n1)OCc1ccc2c(Cl)cc(Cl)c(O)c2n1
2. O=C(/C=C/C12c3ccccc3C(c3ccccc31)C1C(=O)NC(=O)C12)c1ccco1 (centres undefined)

Reply:
1: 4.84; 2: 13

// each listed compound needs a value for growth
1. Clc1ccc2nn3c4ccccc4c(OCCN4CCOCC4)nc3c2c1
2. COc1ccc2c(c1)c(-c1nc(-c3ccc4ccccc4c3)cs1)cn2C

Reply:
88.1
49.9

###

# Tested on: T-47D breast
# test-summary: NCI-60 one-dose screen, 48 h
# test-settings: 10 µM unless noted
About 83,000 compounds went through this panel and 20% of them were active in at least one assay; those are over-represented in the sample as a whole. Calls of active or inactive are those of the source. Rule for the calls: active = growth percent below 10; inactive = the rest.
Hello, when you answer, please use one of the following outcomes: 1 (active), -1 (inactive)

Examples with answers:
- compound: "COc1ccc(N=C2NN=C(c3c[nH]c4ccccc34)CS2)cc1OC"
  group-label: -1
- compound: "COc1nc(/C=C\\Nc2ccc3c(c2)OCCOCCOCCOCCO3)nc(OC)n1"
  group-label: -1
- compound: "COC1C(O)CC(OC2CC(OC3CC(O[C@@H]4C(=O)c5c(cc6cc(OC7CC(OC8CC(O)C(O)C(C)O8)C(O)C(C)O7)c(C)c(O)c6c5O)CC4[C@H](OC)[C@@H](O)C(C)=O)OC(C)C3O)OC(C)C2O)OC1C (some centres not stated)"
  group-label: 1
- compound: "COc1cc(-c2cc(-c3ccc(Nc4nc(Nc5ccc(Cl)cc5)nc(Nc5ccc(Cl)cc5)n4)cc3)no2)cc(OC)c1OC"
  group-label: -1
- compound: "Cc1ccc2c(c1)sc1nc(-c3c[nH]c4ccccc34)c(Nc3ccccc3)n12"
  group-label: -1

Query: Please state the recorded outcome for this compound: C=C(C)[C@@H]1CC[C@]2(C(=O)Nc3ccccn3)CC[C@]3(C)[C@H](CC[C@@H]4[C@@]5(C)CCCNC(C)(C)[C@@H]5CC[C@]43C)[C@@H]12
Reply: -1

Query: Please state the recorded outcome for this compound: Cc1ccc(S(=O)(=O)OC[C@]23CCC(C)(C)C[C@H]2C2=CC[C@@H]4[C@@]5(C)CCCNC(C)(C)[C@@H]5CC[C@@]4(C)[C@]2(C)CC3)cc1
Reply: 1
